The reported numbers originate from the Human Domainome abundance scans (Beltran et al. 2025).

B1: Max-interacting protein 1, residues 70 to 120; numbered along this chain, P50539 (parent)
chain: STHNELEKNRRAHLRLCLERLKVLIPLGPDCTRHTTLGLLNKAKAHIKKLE

Variants of: B1
Experiment: abundance fitness (aPCA) (normalised: wild type 0, dead -1); higher = more abundant; growth selection in yeast, the domain comes from the species named
Conditions: Homo sapiens
measured_metric: abundance fitness
Give bare numbers.

Below, each entry is followed by its recorded abundance fitness result.
> print(dat)
   change    measured.metric  endpoint.value
1    L14C  abundance fitness          -0.315
2    H13S  abundance fitness          -0.085
3    H46W  abundance fitness           0.216
4    A45W  abundance fitness          -0.483
5    L14A  abundance fitness          -0.197
6    H46G  abundance fitness           0.108

Lab note: each variant below needs its abundance fitness filled in.
1. N41P
2. E5G
3. E7I
4. C17A

-- reply
-0.44
-0.244
-0.479
-0.193

Lab note: each variant below needs its abundance fitness filled in.
1. H3C
2. T35Y
3. K8N
4. V23H
5. E51L
6. P29A
7. E19L
8. L24R

-- reply
0.021
0.279
-0.328
0.455
-0.182
0.466
-0.791
0.013
